# test_details: Rat pharmacokinetic study of ziprasidone and ziprasidone sulfoxide with resveratrol or quercetin
# stated_conditions: male, Sprague-Dawley, plasma, po, 15 mg/kg, AUC(0-∞), ziprasidone 15 mg/kg oral + resveratrol 50 mg/kg i.g., rats, n=6
parameter_measured: AUC(0-inf) (ng·h/mL)
Write it as a number; the unit ng·h/mL goes unstated.

INPUT: Read the entry O=C1Cc2cc(CCN3CCN(c4nsc5ccccc45)CC3)c(Cl)cc2N1 and write its reported AUC(0-inf).
OUTPUT: 6760

###

# test_details: Rat pharmacokinetic study of ziprasidone and ziprasidone sulfoxide with resveratrol or quercetin
# stated_conditions: male, Sprague-Dawley, plasma, po, 15 mg/kg, AUC(0-∞), ziprasidone 15 mg/kg oral + quercetin 50 mg/kg i.g., rats, n=6
parameter_measured: AUC(0-inf) (ng·h/mL)
Your answer is read as ng·h/mL, so omit the unit and give the number.

INPUT: Read off the recorded AUC(0-inf) for O=C1Cc2cc(CCN3CCN(c4nsc5ccccc45)CC3)c(Cl)cc2N1 [ziprasidone, Ziprasidone]
OUTPUT: 9390
